Just for reference, paper PMC4890880 is where these values come from.

Reported inhibition at 50 µM values for the following molecules.
test system: HepG2-A16-CD81EGFP cells; assay: cells; settings: Homo sapiens, HepG2, read-out: % inhibition
attribute_measured: inhibition at 50 µM (%)

                                   molecule  measured_value
0  CN1C=C(c2ccc3ccccc3n2)C(c2c[nH]c3ccccc23)c2ccccc21 (centres unmarked)            91.2
1  CCCn1c(=N)c(C(=O)NC2CCCCC2)cc2c(=O)n3cccc(C)c3nc21             -21
2            COc1cccc(Nc2nc(N)c3ccccc3n2)c1            88.3
3       Cn1c(C(=O)c2cccc3ccccc23)nc2ccccc21            35.6
4          CN1c2ccccc2N(C)C1c1ccc2c(c1)OCO2            81.6

----------
system: Plasmodium berghei (Pb-Luc) exoerythrocytic-stage parasites; assay: microbe, parasite or virus in culture; conditions: read-out: Inhibition% @ 50 uM rep2
attribute_measured: inhibition at 50 µM (%)

In [3]: df
Out[3]:
                                   compound  measured_value
0  Cc1ccc(C)c(-c2csc(Nc3ccc(C)c(C)c3)n2)c1 [MMV007654]             -33
1  CCOc1c(Br)cc(C2C(C(=O)OC)=CN(C)C=C2C(=O)OC)cc1OC [MMV006764]             103
2  O=C(Nc1cccc(-c2nc3ccccc3[nH]2)c1)c1cccc(NC(=O)c2ccco2)c1 [MMV665883]             102
3  Nc1ccc(-c2nc3cc(Oc4ccc(Oc5ccc6[nH]c(-c7ccc(N)cc7)nc6c5)cc4)ccc3[nH]2)cc1 [MMV011895]              99
4  COc1cc(CNCCc2ccc(Cl)cc2)cc(OC)c1O [MMV128432]              93
5  Cc1cc(C)c2c(c1)OCN(Cc1ccccc1Cl)C2 [MMV006558]             105
6  OC(CNC1CCCCC1)Cn1c2ccccc2c2ccccc21 (stereo not drawn) [MMV009063]             105
7  COc1cccc(NC(=O)Cn2c(C)c(C#N)c3ccccc32)c1 [MMV665826]             101
8  FC(F)(F)c1cccc(Nc2nc(-c3ccccc3)nc3ncccc23)c1 [MMV665798]             104

----------
test system: HepG2-A16-CD81EGFP cells; experiment: cells; details: Homo sapiens, HepG2, read-out: % inhibition
attribute_measured: inhibition at 50 µM (%)

                                   molecule  measured_value
0  CCCCc1c(CCC)c(=N)c2ccccc2n1C [MMV007764]            83.9
1  O=C(CCc1ccco1)NC1CCN(CC2(c3ccc(Cl)cc3)CCC2)CC1 [MMV666108]            54.1
2  COc1cccc(O)c1CN1CCC2(CCCN(Cc3ccc(F)cc3)C2)C1 (centres unmarked) [MMV666061]            96.5
3  CCc1ccc(Nc2cc(C)c3ccc(O)cc3n2)cc1 [MMV000570]            98.1
4  COc1cc(OC)cc(N2C(=O)N(Cc3ccc(C(C)(C)C)cc3)c3ccccc3S2(=O)=O)c1 [MMV008173]           -9.98

----------
tested on: Plasmodium berghei (Pb-Luc) exoerythrocytic-stage parasites; details: first series of columns; concentration 3.33333; fraction of control
Please note: normalized signal at concentration 3.33333 exactly at 1 is no. Only values below 1 get yes.

In [3]: df
Out[3]:
                                   molecule  class
0  COc1ccccc1NC(=O)N1C[C@@H]2N[C@H](C1)C2c1ccc(/C=C/c2ccccc2)cc1 (stereo partly drawn) [BRD-K72765192-019-01-4]     no
1  C[C@@H]1CN([C@@H](C)CO)C(=O)c2ccccc2-c2ccccc2CO[C@@H]1CN(C)S(=O)(=O)Cc1ccccc1 [BRD-K06421369-001-01-0]     no
2  O=C(O)C[C@H]1CC[C@@H]2[C@H](COC[C@@H](O)CN2S(=O)(=O)c2ccc(Oc3ccccc3)cc2)O1 [BRD-K61788733-001-01-3]     no
3  Cc1noc(C)c1S(=O)(=O)N(C)C[C@H]1OCc2cn(nn2)CCCC(=O)N([C@@H](C)CO)C[C@@H]1C [BRD-K72210630-001-02-7]    yes
4  C[C@@H]1CCCCO[C@H](CN(C)S(=O)(=O)c2ccc(F)cc2)[C@@H](C)CN([C@@H](C)CO)C(=O)c2cc(N(C)C)ccc2O1 [BRD-K27035180-001-01-0]    yes
5  C[C@H]1CN([C@@H](C)CO)C(=O)CCCn2cc(nn2)CO[C@H]1CN(C)C(=O)Nc1cccc2ccccc12 [BRD-K54628954-001-01-2]    yes
6  CC(C)NC(=O)NCC[C@@H]1CC[C@H](NS(=O)(=O)c2ccc(Oc3ccccc3)cc2)[C@@H](CO)O1 [BRD-K66184091-001-01-6]     no
7  O=C(Nc1ccc2c(c1)[C@@H]1C[C@@H](CC(=O)N3CCc4ccccc4C3)O[C@@H](CO)[C@@H]1O2)c1ccc2c(c1)OCO2 [BRD-K15778794-001-01-7]    yes
8  C[C@H](CO)N1C[C@H](C)[C@H](CN(C)S(=O)(=O)c2ccc(F)cc2)OCCCC[C@H](C)Oc2ccc(N(C)C)cc2C1=O [BRD-K59130783-001-01-1]    yes
9  CO[C@H]1CN(C)C(=O)c2cc(NC(=O)c3cccc(F)c3)ccc2OC[C@H](C)N(C)C[C@H]1C [BRD-K79512815-001-01-8]    yes

----------
Some compounds, each annotated with its measured normalized signal at 0.00152416 (second series).
tested on: Plasmodium berghei (Pb-Luc) exoerythrocytic-stage parasites; settings: concentration 0.00152416, second replicate series; fraction of control
attribute_measured: normalized signal at 0.00152416 (second series)

compound	measured_value
C[C@@H]1CN([C@H](C)CO)C(=O)c2ccccc2-c2ccccc2CO[C@H]1CN(C)C(=O)[C@H](Cc1ccccc1)N(C)C [BRD-K75961033-001-01-7]	0.6896
C[C@H]1CN([C@@H](C)CO)C(=O)c2cccc(NC(=O)c3ccc(-c4nccs4)cc3)c2O[C@@H]1CN(C)C(=O)Nc1ccc(C(F)(F)F)cc1 [BRD-K03390828-001-01-5]	0.8915
O=C(C[C@@H]1CC[C@@H]2[C@H](COC[C@@H](O)CN2C(=O)c2ccncc2)O1)Nc1ccc(-c2ccccc2)cc1 [BRD-K17686828-001-01-0]	0.8307

----------
system: HepG2-A16-CD81EGFP cells; experiment: cells; details: Homo sapiens, HepG2, read-out: HepG2 Tox% @ 50 uM rep1
attribute_measured: cytotoxicity at 50 µM (%)

>>> print(df.to_string())
                                   molecule             target_entity  units_label  measured_value
0   CN(N=O)C1=C(NC2CCCCC2)C(=O)c2ccccc2C1=O  HepG2-A16-CD81EGFP cells            %              98
1  Cc1ccc(C2CC(C(F)(F)F)n3nc(C(=O)N4CCN(C(c5ccccc5)c5ccccc5)CC4)cc3N2)cc1 (centres unmarked)  HepG2-A16-CD81EGFP cells            %              49
2       N=c1c2ccccc2nnn1-c1cccc(C(F)(F)F)c1  HepG2-A16-CD81EGFP cells            %            -7.5
3   Cc1ccc2nc(C)cc(Nc3cccc(C(F)(F)F)c3)c2c1  HepG2-A16-CD81EGFP cells            %             100
4           Cc1ccc(Nc2nc(N)c3ccccc3n2)cc1Cl  HepG2-A16-CD81EGFP cells            %              97

----------
test system: Plasmodium berghei (Pb-Luc) exoerythrocytic-stage parasites; assay: microbe, parasite or virus in culture; conditions: read-out: PbLuc IC50, dose response, 1/3 dilutions, max conc. 10 or 50 uM, unit inferred
So basically, the class depends on measured IC50, and the ranges are A (below 0.7 µM), B (0.7 µM to below 2 µM), C (2 µM or more)

                                    compound                             target_entity  class
 0  COc1cc(-c2nc(-c3ccc(Sc4ccccc4)cc3)c(-c3ccccc3)[nH]2)cc(OC)c1O  Plasmodium berghei (Pb-Luc) exoerythrocytic-stage parasites      C
 1            CCN(CC)c1ccc(NC(=O)c2cccs2)cc1  Plasmodium berghei (Pb-Luc) exoerythrocytic-stage parasites      B
 2  O=C(Nc1ccc(-c2nc3cc(NC(=O)c4ccc(Cl)cc4)ccc3[nH]2)cc1)c1ccc(Cl)cc1  Plasmodium berghei (Pb-Luc) exoerythrocytic-stage parasites      A
 3  O=C(NC1CCCC1)c1ccc(N2CCC(NCc3cccc(C(F)(F)F)c3)CC2)cc1  Plasmodium berghei (Pb-Luc) exoerythrocytic-stage parasites      B
 4               CCOC(=O)c1cnc2ccc(CC)cc2c1O  Plasmodium berghei (Pb-Luc) exoerythrocytic-stage parasites      A
 5  CC(=O)Nc1nnc(SCc2c(C)cc(C(C)(C)C)cc2C)s1  Plasmodium berghei (Pb-Luc) exoerythrocytic-stage parasites      C
 6  CCCCCC(=O)N1c2ccccc2N=C2CC(c3ccc(OC)c(OC)c3)CC(O)=C2C1c1ccc(C(F)(F)F)cc1 (stereo not shown)  Plasmodium berghei (Pb-Luc) exoerythrocytic-stage parasites      C
 7  Cc1ccc(-c2cc3c(SCC(=O)Nc4cc(C(F)(F)F)ccc4Cl)nccn3n2)cc1  Plasmodium berghei (Pb-Luc) exoerythrocytic-stage parasites      C
 8  CCN1CCN(c2c(C(=O)c3ccccc3)cnc3cc(OC)c(OC)cc23)CC1  Plasmodium berghei (Pb-Luc) exoerythrocytic-stage parasites      B
 9  CN1CCN(c2ccc(Nc3c4ccccc4nc4ccccc34)cc2)CC1  Plasmodium berghei (Pb-Luc) exoerythrocytic-stage parasites      C
10          CCOc1ccc(Nc2ccnc3cc(Cl)ccc23)cc1  Plasmodium berghei (Pb-Luc) exoerythrocytic-stage parasites      B
11                CCCCc1c(C)nc2c(OC)cccc2c1O  Plasmodium berghei (Pb-Luc) exoerythrocytic-stage parasites      A
12                     CCCc1c(C)nc2ccccc2c1O  Plasmodium berghei (Pb-Luc) exoerythrocytic-stage parasites      A
13  COc1ccc(NC(=O)C2c3ccccc3C(=O)N(CC(C)C)C2c2cccs2)cc1Cl (stereo not shown)  Plasmodium berghei (Pb-Luc) exoerythrocytic-stage parasites      C
14       COc1cccc(C=Cc2nc(=O)c3ccccc3o2)c1OC  Plasmodium berghei (Pb-Luc) exoerythrocytic-stage parasites      A
15         Oc1c2c(nc3cc(-c4ccccc4)nn13)CCCC2  Plasmodium berghei (Pb-Luc) exoerythrocytic-stage parasites      A
16  CCOC(=O)C1=CN(C)C=C(C(=O)OCC)C1c1cc(Br)c(OCC)c(OC)c1  Plasmodium berghei (Pb-Luc) exoerythrocytic-stage parasites      C
17  Cc1ccnc(NC(c2cccc(OCc3ccccc3)c2)c2ccc3cccnc3c2O)c1 (stereo not shown)  Plasmodium berghei (Pb-Luc) exoerythrocytic-stage parasites      B
18  FC(F)(F)c1cccc(Nc2nc3ccccc3nc2Nc2cccc(C(F)(F)F)c2)c1  Plasmodium berghei (Pb-Luc) exoerythrocytic-stage parasites      A
